Origin of values: the supplement of paper PMC12350171

- Test system: P. vulgatus RND KO
- ASSAY SUMMARY: growth AUC normalised to DMSO control (median) (fraction of control); higher = less growth inhibition, active = hit call of the paper;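 note: active when median AUC fell below 0.1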
- RUN CONDITIONS: 20 µM
Counter-ions that a name gives are not always drawn.
PARAMETER MEASURED: growth AUC normalised to DMSO control
Please state the value as a number alone, without comment.

Some entries whose results are on file:
C#Cc1cccc(Nc2ncnc3cc(OCCOC)c(OCCOC)cc23)c1 ... 0.967
O=C(O)COCCN1CCN(C(c2ccccc2)c2ccc(Cl)cc2)CC1 (stereo not drawn) [Cetirizine dihydrochloride] ... 1
Cc1ccccc1C(OCCN(C)C)c1ccccc1 (stereo not drawn) [Orphenadrine hydrochloride] ... 1.01
CCC[C@H](N[C@@H](C)C(=O)N1[C@H](C(=O)O)C[C@@H]2CCCC[C@@H]21)C(=O)OCC ... 1.03

Per the records, this molecule ( C[C@]12C=CC(=O)C=C1CC[C@@H]1[C@@H]2[C@@H](O)C[C@@]2(C)[C@H]1CC[C@]2(O)C(=O)CO ) has growth AUC normalised to DMSO control equal to 0.976

Measured growth AUC normalised to DMSO control of Nc1nc2c(ncn2COC(CO)CO)c(=O)[nH]1 : 0.978

growth AUC normalised to DMSO control for OC(CCN1CCCCC1)(c1ccccc1)c1ccccc1 [Pridinol methanesulfonate salt] is 0.963

Item: CCCCN1CCCCC1C(=O)Nc1c(C)cccc1C (stereo not drawn) [Bupivacaine hydrochloride] | growth AUC normalised to DMSO control: 1.01

* * *

- System: S. enterica typhimurium tolC KO
- ASSAY SUMMARY: growth AUC normalised to DMSO control (median) (fraction of control); higher = less growth inhibition, active = hit call of the paper;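 active = normalised median growth AUC below 0.1 of DMSO control; inactive = AUC 0.1 or higher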
- RUN CONDITIONS: 20 µM
Structures can show the parent of a compound that is named as a salt.
Log the outcome using a class from active, inactive

Example entries begin here.
CCOC(=O)NNc1nncc2ccccc12 [Todralazine hydrochloride] ... inactive
CN(C)C(=O)COC(=O)Cc1ccc(OC(=O)c2ccc(NC(=N)N)cc2)cc1 [Camostat mesylate] ... inactive

# lookup: test call for CN(C)CCC=C1c2ccccc2COc2ccccc21 [Doxepin hydrochloride]
inactive

Call for entry COc1cc2nc(N3CCN(C(=O)C4CCCO4)CC3)nc(N)c2cc1OC (stereo not given) [Terazosin hydrochloride] :
inactive

Dear all, I need the recorded test outcome for COc1ccc(CC(C)NCC(O)c2ccc(O)c(NC=O)c2)cc1 (stereo not given) [Formoterol fumarate] , thank you.
inactive

Hi, do you know how CCN(Cc1ccncc1)C(=O)C(CO)c1ccccc1 (stereo not given) [Tropicamide] came out in this test?
inactive

How was Cn1cnc2c1c(=O)[nH]c(=O)n2C classified in this test?
inactive

I would be grateful if you could indicate the recorded call for CN1c2cc(O)c(N=NC(N)=O)cc2CC1S(=O)(=O)O (stereo not given) [Carbazochrome sodium sulfonate] .
inactive

* * *

- Test system: P. vulgatus RND KO
- ASSAY SUMMARY: growth AUC normalised to DMSO control (median) (fraction of control); higher = less growth inhibition, active = hit call of the paper
- RUN CONDITIONS: 20 µM
Structures can show the parent of a compound that is named as a salt.
PARAMETER MEASURED: growth AUC normalised to DMSO control
Lab note: record the figure alone, no unit after it.

# annotated cases, reported growth AUC normalised to DMSO control shown
C=C1c2cccc(O)c2C(O)=C2C(=O)[C@]3(O)C(O)=C(C(N)=O)C(=O)[C@@H](N(C)C)[C@@H]3[C@@H](O)[C@H]12 [Methacycline hydrochloride] ... 0.0122
CN1CCC(=C2c3ccccc3Sc3ccccc32)CC1 [Pimethixene maleate] ... 0.812
COC(c1ccccc1)(c1ccccc1)[C@H](Oc1nc(C)cc(C)n1)C(=O)O ... 0.997
N=C(N)NC(=O)c1nc(Cl)c(N)nc1N [Amiloride hydrochloride dihydrate] ... 1.03
O=C(O)c1cccnc1 ... 1.05
CC(C)CC(=O)N[C@H](C(=O)N[C@H](C(=O)N[C@@H](CC(C)C)[C@@H](O)CC(=O)N[C@@H](C)C(=O)N[C@@H](CC(C)C)[C@@H](O)CC(=O)O)C(C)C)C(C)C ... 1.02
COCCOC(=O)C1=C(C)NC(C)=C(C(=O)OC(C)C)C1c1cccc([N+](=O)[O-])c1 (stereo unspecified) ... 1.02
CC(C)(C)C(=O)C(Oc1ccc(Cl)cc1)n1ccnc1 (stereo unspecified) ... 0.968
CC[N+](CC)(CC)CCC(O)(c1ccccc1)C1CCCCC1 (stereo unspecified) [Tridihexethyl chloride] ... 1.06
Nc1nc(=S)c2ncn([C@@H]3O[C@H](CO)[C@@H](O)[C@H]3O)c2[nH]1 ... 1.03

Consider now this further compound.
Quick note, growth AUC normalised to DMSO control for Cc1onc(-c2ccccc2)c1-c1ccc(S(N)(=O)=O)cc1 landed at 0.981
